Target: E3 ubiquitin-protein ligase XIAP (Homo sapiens) (UniProt P98170)
Sequence (P98170 whole entry, looked up): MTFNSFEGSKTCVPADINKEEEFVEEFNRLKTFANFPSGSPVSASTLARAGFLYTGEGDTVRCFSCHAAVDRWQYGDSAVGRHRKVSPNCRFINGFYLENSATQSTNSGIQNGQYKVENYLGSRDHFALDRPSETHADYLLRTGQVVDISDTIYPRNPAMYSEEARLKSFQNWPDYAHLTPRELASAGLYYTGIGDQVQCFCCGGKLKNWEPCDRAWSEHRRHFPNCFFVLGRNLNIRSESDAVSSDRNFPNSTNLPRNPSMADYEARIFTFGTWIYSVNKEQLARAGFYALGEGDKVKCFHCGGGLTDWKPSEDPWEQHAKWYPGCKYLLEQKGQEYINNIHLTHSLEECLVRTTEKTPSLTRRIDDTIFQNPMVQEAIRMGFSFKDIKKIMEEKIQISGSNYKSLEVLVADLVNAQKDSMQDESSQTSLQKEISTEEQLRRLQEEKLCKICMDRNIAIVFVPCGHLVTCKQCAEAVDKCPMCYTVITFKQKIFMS
Test: XIAP binders, primary screen, biophysical, small-molecule microarray, fluorescence 635 nm (AID 1181);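 note: score merges 667 nm emission and signal to noise over triplicate slides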
Conditions: small-molecule microarray binding, higher = more signal
Each record here notes measured composite z-score.
Give your answer as a number; write no unit.

Input: Specify reported composite z-score for the molecule shown: CCOC(=O)C[C@H]1[C@H](OC(=O)Cc2ccc3c(c2)OCO3)[C@@H](NC(=O)c2ccccc2)c2cc(OCCCO)ccc2N1C(=O)Cc1ccc(OC)cc1
Output: -0.162

----------
Assay: binders of probe aHhip on microarray, primary screen, stem cell growth factor project, biochemical, small-molecule microarray, fluorescence 635/667 (AID 1087);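 note: score merges spot fluorescence at 667nm with spot signal to noise ratio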
Settings: higher = more signal
reportedMetric: composite z-score
Form rule: numeric answer, no unit written next to it.

molecule: [N-]=[N+]=NCc1ccccc1C[C@]1(C(=O)N2CCOCC2)N=C(c2ccc(OCCCO)cc2)O[C@H]1c1ccccc1CN=[N+]=[N-]
composite z-score: 0.0623
//
molecule: COCCOC(=O)N1C(=O)[C@@]2(c3cc(C#Cc4ccc(OC)cc4)ccc31)[C@H](C(=O)N1CCCCCCC1)[C@H]1C(=O)O[C@H](c3ccccc3)[C@H](c3ccccc3)N1[C@@H]2c1ccccc1OCCO
composite z-score: 2.21
//
molecule: C=C(COC)/C(=C/C[C@H](OC(=O)c1ccncc1)c1cccc(OCCO)c1)c1cnc2ccccc2c1
composite z-score: -0.134
//
molecule: C[N+](C)(C)CCCC[C@@H]1NC(=O)[C@H]2C[C@@H](C(=O)NCCCCCNC(=O)CS)[C@@H](c3ccc(O)cc3)N2C1=O
composite z-score: 0.0623
//
molecule: COCC1=C([C@H](O)CCc2ccccc2)[C@H](CO)n2c(=O)n(-c3ccccc3)c(=O)n2C1
composite z-score: -0.156
//
molecule: CN(C)CCCCNC(=O)[C@H]1C[C@H]2C(=O)N[C@@H](Cc3ccccc3)C(=O)N2[C@H]1c1cccc(OCCO)c1
composite z-score: 0.0092
//
molecule: Cc1c(NC(=O)/C(C#N)=C/c2ccc(Cl)cc2)c(=O)n(-c2ccccc2)n1C
composite z-score: 0.0623
//
molecule: COc1cc2c(cc1O)C(c1ccc(CN3CCCC3)cc1)N(Cc1ccc([N+](=O)[O-])o1)CC2 (stereo not given)
composite z-score: -0.354
//
molecule: CCCC[C@H]1OB(O)C[C@H]2C1=C(COC)C[C@H]1C(=O)C=CC(=O)[C@H]12
composite z-score: 0.206
//
molecule: CC(C)CNC(=O)[C@@]1(C)c2ccccc2C(=O)N(Cc2cc(F)cc(C(F)(F)F)c2)[C@H]1c1ccc(CO)cc1
composite z-score: 0.0722

Input: Give reported composite z-score value for C=C(COC)/C(=C/C[C@@H](OC(C)=O)c1ccccc1OCCO)c1cc(C(=O)OC)ccc1OC
Output: -0.374

Input: Identify composite z-score associated with the molecule CCCC=C(CCC)[C@@H](NC(=O)c1ccccc1)c1ccc(C(=O)OC)cc1
Output: 1.09

----------
Test system: Chordin-like protein 2 (CHRDL2)
Experiment: CHRDL2 small-molecule binders, primary screen, biochemical, small-molecule microarray, 635 nm fluorescence (AID 1126);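 note: printed compound slides probed with Chrdl2 protein at 4 µg/mL for 1 h at 4 C; score merges 667 nm emission intensity with signal to noise over three replicate slides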
Conditions: small-molecule microarray binding, fluorescence 635 nm; higher = more signal
reportedMetric: composite z-score
// print number alone

compound: CO[C@H]1O[C@H](CO)[C@@H](OC(=O)Nc2ccccc2)[C@@H]2OC(=O)[C@H](Cc3ccccc3)C/C=C/C[C@@H](Cc3ccccc3)C(=O)O[C@@H]12
dataValue: 0.152
--
compound: C=CCNC(=O)[C@@H]1[C@H]2C(=O)O[C@H](c3ccccc3)[C@H](c3ccccc3)N2[C@H](c2ccc(O)cc2)[C@@]12C(=O)Nc1ccc(C#CC3(O)CCCCCC3)cc12
dataValue: 0.227

Input: Given the compound NCCCC[C@@H]1NC(=O)[C@H]2C[C@@H](C(=O)NCc3ccc(F)cc3)[C@@H](c3ccc(O)cc3)N2C1=O , write its reported composite z-score.
Output: 0.521

Input: Read off the recorded composite z-score for CCCCC(O)C1C=CC2C(=O)N(C)C(=O)C2N1Nc1ccccc1 (stereo unspecified)
Output: -0.107

Input: Quote composite z-score reported for O=C(NCCO)C1=C[C@H](Oc2ccccc2I)[C@@H](O)[C@H](NCc2ccc(F)cc2)C1 please.
Output: -0.0242

Input: Provide measured composite z-score value, entry: CCCC=C(CCC)[C@@H](NC(=O)c1ccccc1)c1ccc(C(=O)OC)cc1
Output: 0.308

Input: For the compound O=C1NC(=O)C2C1C=CC(C(O)c1ccc(F)cc1)N2Nc1ccccn1 (stereo unspecified) , report composite z-score.
Output: 0.317

Input: Name the recorded composite z-score of the compound listed here: C=C(COC)/C(=C/C[C@@H](OC(C)=O)c1ccccc1OCCO)c1cc(C(=O)OC)ccc1OC
Output: -0.183

Input: Identify measured composite z-score associated with CCC(CC)C(O)C1C=CC2C(=O)N(C)C(=O)C2N1N1CCCCC1 (stereo unspecified)
Output: 0.0277

Input: Fill in composite z-score for record CN(C)CCCC[C@@H]1NC(=O)[C@H]2C[C@@H](C(=O)NCc3ccc(F)cc3)[C@@H](c3ccc(O)cc3)N2C1=O
Output: 1.13

Input: For the compound COc1ccc([Si](C)(C)[C@H]2[C@H](CCn3cc([C@H](O)c4ccccc4)nn3)O[C@@]3(C(=O)N(C)c4c(Br)cc(C)cc43)[C@@H]2C)cc1 , give its reported composite z-score.
Output: 0.182

Cited source: PubChem BioAssay
